In this section, each of the compounds is paired with its reported log10 of Ki.
Biological target: Sodium-dependent noradrenaline transporter (Homo sapiens)
Sequence (P23975 whole entry): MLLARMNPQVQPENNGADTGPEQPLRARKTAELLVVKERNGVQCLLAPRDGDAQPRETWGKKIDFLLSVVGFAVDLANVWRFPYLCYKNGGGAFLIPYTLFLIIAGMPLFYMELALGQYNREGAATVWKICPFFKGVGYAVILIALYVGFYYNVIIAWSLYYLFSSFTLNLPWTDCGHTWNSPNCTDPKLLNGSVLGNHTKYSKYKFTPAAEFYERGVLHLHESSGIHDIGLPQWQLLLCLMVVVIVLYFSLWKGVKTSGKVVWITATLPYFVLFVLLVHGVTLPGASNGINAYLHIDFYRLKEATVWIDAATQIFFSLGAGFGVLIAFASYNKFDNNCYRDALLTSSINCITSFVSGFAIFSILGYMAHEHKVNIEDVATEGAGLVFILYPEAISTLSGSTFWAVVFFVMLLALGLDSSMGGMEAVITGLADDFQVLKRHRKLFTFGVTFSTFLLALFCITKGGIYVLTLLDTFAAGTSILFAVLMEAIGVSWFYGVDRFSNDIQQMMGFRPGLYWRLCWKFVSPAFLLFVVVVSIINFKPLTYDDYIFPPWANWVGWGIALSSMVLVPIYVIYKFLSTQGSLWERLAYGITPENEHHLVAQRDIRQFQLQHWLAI
Assay: Displacement of [3H]nisoxetine from human recombinant NET expressed in BacMam virus-transduced cells by scintillation proximity assay
Assay type: cell-based
quantity name: log10 of Ki (log10 of the value in nM)

>  <compound>
FC(F)(F)COC[C@@H]1[C@H]2CNC[C@]21c1ccc(Cl)c(Cl)c1 (stereo in doubt)

>  <log10 of Ki>
0.20

$$$$
>  <compound>
Clc1ccc([C@]23CNC[C@H]2[C@@H]3COCC2CC2)cc1Cl (relative stereo)

>  <log10 of Ki>
1.20

$$$$
>  <compound>
COCC[C@H]1[C@@]2(c3ccc(Cl)c(Cl)c3)CNC[C@]12C (relative stereo)

>  <log10 of Ki>
3.00

$$$$
>  <compound>
COC[C@@H]1[C@@H]2CNC[C@]12c1ccc(Cl)c(Cl)c1 (racemic)

>  <log10 of Ki>
3.11

$$$$
>  <compound>
COCC[C@H]1[C@]2(C)CNC[C@]12c1ccc(Cl)c(Cl)c1 (racemic)

>  <log10 of Ki>
0.50

$$$$
>  <compound>
Clc1ccc([C@]23CNC[C@H]2[C@@H]3COC2CCC2)cc1Cl (stereo in doubt)

>  <log10 of Ki>
0.10

$$$$
>  <compound>
COCC[C@]1(c2ccc(Cl)c(Cl)c2)[C@@H]2CNC[C@@H]21

>  <log10 of Ki>
0.90

$$$$
>  <compound>
CN(C)C[C@H]1[C@@H]2CNC[C@@]21c1ccc(Cl)c(Cl)c1 (racemic)

>  <log10 of Ki>
1.50

$$$$
>  <compound>
Clc1ccc([C@@]23CNC[C@@H]2[C@H]3COC2CCC2)cc1Cl (stereo in doubt)

>  <log10 of Ki>
2.20

$$$$
>  <compound>
COC[C@H]1[C@@H]2CNC[C@@]21c1ccc2ccccc2c1 (stereo in doubt)

>  <log10 of Ki>
0.00

$$$$
>  <compound>
FC(F)(F)COC[C@]1(c2ccc(Cl)c(Cl)c2)[C@@H]2CNC[C@@H]21

>  <log10 of Ki>
1.40

$$$$
>  <compound>
COC[C@H]1[C@@H]2CNC[C@@]21c1ccc(Cl)c(Cl)c1 (relative stereo)

>  <log10 of Ki>
0.24

$$$$
>  <compound>
CCOC[C@H]1[C@@H]2CN(C)C[C@]12c1ccc(Cl)c(Cl)c1 (relative stereo)

>  <log10 of Ki>
1.20

$$$$
>  <compound>
FC(F)(F)COC[C@H]1[C@@H]2CNC[C@@]21c1ccc(Cl)c(Cl)c1

>  <log10 of Ki>
2.54

$$$$
>  <compound>
Clc1ccc([C@]23CNC[C@H]2[C@@H]3COC2CCCCC2)cc1Cl (racemic)

>  <log10 of Ki>
0.30

$$$$
>  <compound>
CCOCC[C@]1(c2ccc(Cl)c(Cl)c2)[C@@H]2CNC[C@@H]21

>  <log10 of Ki>
0.90

$$$$
>  <compound>
Cc1csc(C[C@H]2[C@@H]3CNC[C@@]32c2ccc(Cl)c(Cl)c2)n1 (stereo in doubt)

>  <log10 of Ki>
-0.50

$$$$

* * *

In this section, each of the compounds is paired with its reported pKi.
Molecular target: Sodium-dependent dopamine transporter (Homo sapiens)
Sequence (Q01959 whole entry): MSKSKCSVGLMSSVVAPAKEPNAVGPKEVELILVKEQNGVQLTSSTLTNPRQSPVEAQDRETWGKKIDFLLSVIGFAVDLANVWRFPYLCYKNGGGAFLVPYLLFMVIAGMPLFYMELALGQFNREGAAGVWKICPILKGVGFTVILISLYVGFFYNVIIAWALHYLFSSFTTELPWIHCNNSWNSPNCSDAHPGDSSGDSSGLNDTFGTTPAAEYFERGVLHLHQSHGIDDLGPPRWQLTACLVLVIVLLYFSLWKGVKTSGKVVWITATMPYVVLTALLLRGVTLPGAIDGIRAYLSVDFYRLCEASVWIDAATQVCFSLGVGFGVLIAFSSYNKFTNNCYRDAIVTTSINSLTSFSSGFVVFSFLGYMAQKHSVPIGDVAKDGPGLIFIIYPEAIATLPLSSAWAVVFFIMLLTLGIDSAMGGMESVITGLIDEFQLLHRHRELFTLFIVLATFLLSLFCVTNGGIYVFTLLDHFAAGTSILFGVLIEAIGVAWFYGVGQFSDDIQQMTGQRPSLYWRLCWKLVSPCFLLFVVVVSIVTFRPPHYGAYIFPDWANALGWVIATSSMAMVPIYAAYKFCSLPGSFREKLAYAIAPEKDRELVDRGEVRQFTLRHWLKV
Experiment: Displacement of [3H]WIN-35428 from human recombinant DAT expressed in BacMam virus-transduced cells by scintillation proximity assay
Format: cell-based
pKi: −log10 of the molar value.
quantity name: pKi

>  <compound>
CN(C)C[C@H]1[C@@H]2CNC[C@@]21c1ccc(Cl)c(Cl)c1 (racemic)

>  <target of assay>
Sodium-dependent dopamine transporter (Homo sapiens)

>  <quantity name>
pKi

>  <observed measurement>
6.20

$$$$
>  <compound>
Clc1ccc([C@]23CNC[C@H]2[C@@H]3COC2CCCC2)cc1Cl (relative stereo)

>  <target of assay>
Sodium-dependent dopamine transporter (Homo sapiens)

>  <quantity name>
pKi

>  <observed measurement>
8.60

$$$$
>  <compound>
CSC[C@H]1[C@@H]2CNC[C@@]21c1ccc(Cl)c(Cl)c1 (stereo in doubt)

>  <target of assay>
Sodium-dependent dopamine transporter (Homo sapiens)

>  <quantity name>
pKi

>  <observed measurement>
7.10

$$$$
>  <compound>
Clc1ccc([C@]23CNC[C@H]2[C@@H]3COCC2CC2)cc1Cl (stereo in doubt)

>  <target of assay>
Sodium-dependent dopamine transporter (Homo sapiens)

>  <quantity name>
pKi

>  <observed measurement>
7.60

$$$$
>  <compound>
Clc1ccc([C@]23CNC[C@H]2[C@@H]3COC2CCC2)cc1Cl (stereo in doubt)

>  <target of assay>
Sodium-dependent dopamine transporter (Homo sapiens)

>  <quantity name>
pKi

>  <observed measurement>
7.90

$$$$
>  <compound>
FC(F)(F)COC[C@]1(c2ccc(Cl)c(Cl)c2)[C@@H]2CNC[C@@H]21

>  <target of assay>
Sodium-dependent dopamine transporter (Homo sapiens)

>  <quantity name>
pKi

>  <observed measurement>
7.60

$$$$
>  <compound>
COC[C@@H]1[C@H]2CNC[C@]21c1ccc2ccccc2c1 (stereo in doubt)

>  <target of assay>
Sodium-dependent dopamine transporter (Homo sapiens)

>  <quantity name>
pKi

>  <observed measurement>
7.60

$$$$
>  <compound>
CSC[C@@H]1[C@H]2CNC[C@]21c1ccc(Cl)c(Cl)c1 (stereo in doubt)

>  <target of assay>
Sodium-dependent dopamine transporter (Homo sapiens)

>  <quantity name>
pKi

>  <observed measurement>
7.20

$$$$
>  <compound>
COCC[C@H]1[C@@]2(c3ccc(Cl)c(Cl)c3)CNC[C@]12C (relative stereo)

>  <target of assay>
Sodium-dependent dopamine transporter (Homo sapiens)

>  <quantity name>
pKi

>  <observed measurement>
6.90

$$$$
>  <compound>
Clc1ccc([C@@]23CNC[C@@H]2[C@H]3COC2CCCC2)cc1Cl (stereo in doubt)

>  <target of assay>
Sodium-dependent dopamine transporter (Homo sapiens)

>  <quantity name>
pKi

>  <observed measurement>
7.00

$$$$
>  <compound>
FC(F)(F)COC[C@H]1[C@@H]2CNC[C@@]21c1ccc(Cl)c(Cl)c1

>  <target of assay>
Sodium-dependent dopamine transporter (Homo sapiens)

>  <quantity name>
pKi

>  <observed measurement>
6.20

$$$$
>  <compound>
COCC[C@]1(c2ccc(Cl)c(Cl)c2)[C@@H]2CNC[C@@H]21

>  <target of assay>
Sodium-dependent dopamine transporter (Homo sapiens)

>  <quantity name>
pKi

>  <observed measurement>
8.00

$$$$
>  <compound>
CC(C)OC[C@H]1[C@@H]2CNC[C@@]21c1ccc(Cl)c(Cl)c1 (relative stereo)

>  <target of assay>
Sodium-dependent dopamine transporter (Homo sapiens)

>  <quantity name>
pKi

>  <observed measurement>
6.60

$$$$
>  <compound>
FC(F)(F)COC[C@@H]1[C@H]2CNC[C@]21c1ccc(Cl)c(Cl)c1 (stereo in doubt)

>  <target of assay>
Sodium-dependent dopamine transporter (Homo sapiens)

>  <quantity name>
pKi

>  <observed measurement>
7.60

$$$$
>  <compound>
Clc1ccc([C@@]2(COCC3CC3)[C@@H]3CNC[C@@H]32)cc1Cl

>  <target of assay>
Sodium-dependent dopamine transporter (Homo sapiens)

>  <quantity name>
pKi

>  <observed measurement>
8.00

$$$$
>  <compound>
CCCOC[C@@H]1[C@H]2CNC[C@]21c1ccc(Cl)c(Cl)c1 (stereo in doubt)

>  <target of assay>
Sodium-dependent dopamine transporter (Homo sapiens)

>  <quantity name>
pKi

>  <observed measurement>
7.90

$$$$
>  <compound>
COC[C@@H]1[C@H]2CNC[C@]21c1ccc(Cl)c(Cl)c1 (stereo in doubt)

>  <target of assay>
Sodium-dependent dopamine transporter (Homo sapiens)

>  <quantity name>
pKi

>  <observed measurement>
6.29

$$$$
>  <compound>
OC[C@@H]1[C@@H]2CNC[C@]12c1ccc(Cl)c(Cl)c1 (racemic)

>  <target of assay>
Sodium-dependent dopamine transporter (Homo sapiens)

>  <quantity name>
pKi

>  <observed measurement>
6.32

$$$$

* * *

Target: Voltage-gated inwardly rectifying potassium channel KCNH2 (Homo sapiens, UniProt Q12809)
Sequence (Q12809 whole entry): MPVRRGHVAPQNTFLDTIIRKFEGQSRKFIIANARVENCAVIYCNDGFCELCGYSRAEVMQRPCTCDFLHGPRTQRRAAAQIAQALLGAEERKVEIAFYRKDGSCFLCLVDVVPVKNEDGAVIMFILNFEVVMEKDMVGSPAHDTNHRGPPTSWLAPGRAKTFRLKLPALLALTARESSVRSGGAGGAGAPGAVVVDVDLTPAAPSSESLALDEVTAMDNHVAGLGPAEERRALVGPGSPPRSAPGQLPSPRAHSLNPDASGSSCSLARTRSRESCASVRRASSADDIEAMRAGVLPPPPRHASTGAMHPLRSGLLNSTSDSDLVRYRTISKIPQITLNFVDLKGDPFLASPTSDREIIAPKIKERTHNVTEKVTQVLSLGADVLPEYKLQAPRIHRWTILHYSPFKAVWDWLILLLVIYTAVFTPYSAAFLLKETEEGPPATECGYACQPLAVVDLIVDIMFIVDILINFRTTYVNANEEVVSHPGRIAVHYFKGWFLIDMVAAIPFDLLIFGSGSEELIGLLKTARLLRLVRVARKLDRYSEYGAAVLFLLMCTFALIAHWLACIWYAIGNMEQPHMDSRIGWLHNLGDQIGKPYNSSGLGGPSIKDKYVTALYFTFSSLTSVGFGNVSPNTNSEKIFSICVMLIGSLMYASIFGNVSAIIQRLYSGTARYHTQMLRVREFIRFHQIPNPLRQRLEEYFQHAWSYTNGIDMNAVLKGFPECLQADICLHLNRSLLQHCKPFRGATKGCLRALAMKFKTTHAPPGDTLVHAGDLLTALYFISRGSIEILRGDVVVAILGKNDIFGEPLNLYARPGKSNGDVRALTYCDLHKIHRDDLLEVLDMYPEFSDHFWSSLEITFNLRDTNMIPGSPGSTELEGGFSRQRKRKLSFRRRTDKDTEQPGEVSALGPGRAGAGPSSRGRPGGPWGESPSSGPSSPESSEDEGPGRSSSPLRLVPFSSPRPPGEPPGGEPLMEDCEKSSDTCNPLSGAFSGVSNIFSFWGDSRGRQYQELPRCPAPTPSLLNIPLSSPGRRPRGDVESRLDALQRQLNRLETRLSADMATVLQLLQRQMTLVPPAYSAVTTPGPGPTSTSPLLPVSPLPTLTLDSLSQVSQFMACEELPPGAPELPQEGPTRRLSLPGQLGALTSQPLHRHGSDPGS
Experiment: Inhibition of human ERG assessed as blockade of channel current by electrophysiology assay
pIC50: −log10 of the molar value.

>  <smiles code>
CCOC[C@H]1[C@@H]2CNC[C@@]21c1ccc(Cl)c(Cl)c1

>  <pIC50>
5.38

$$$$

* * *

Each entry below carries its measured IC50, system: Cytochrome P450 2C19 (Homo sapiens).
Sequence (P33261 whole entry): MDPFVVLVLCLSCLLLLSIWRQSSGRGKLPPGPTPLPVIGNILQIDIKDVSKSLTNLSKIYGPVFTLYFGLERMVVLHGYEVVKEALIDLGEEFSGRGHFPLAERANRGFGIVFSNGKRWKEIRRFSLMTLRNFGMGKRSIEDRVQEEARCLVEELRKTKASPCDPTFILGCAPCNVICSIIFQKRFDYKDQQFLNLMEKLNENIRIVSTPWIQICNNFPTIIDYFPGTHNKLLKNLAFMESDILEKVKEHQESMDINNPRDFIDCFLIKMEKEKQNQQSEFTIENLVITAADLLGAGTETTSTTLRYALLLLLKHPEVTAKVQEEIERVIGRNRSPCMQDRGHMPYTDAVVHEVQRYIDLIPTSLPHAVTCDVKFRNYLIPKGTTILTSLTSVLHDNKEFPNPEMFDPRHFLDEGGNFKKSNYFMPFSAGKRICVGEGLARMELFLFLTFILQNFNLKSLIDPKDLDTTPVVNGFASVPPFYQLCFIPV
quantity name: IC50

>  <compound>
CCOC[C@H]1[C@@H]2CNC[C@@]21c1ccc(Cl)c(Cl)c1

>  <observed measurement>
> 9 µM

$$$$
>  <compound>
CC(C)OC[C@@H]1[C@H]2CNC[C@]21c1ccc(Cl)c(Cl)c1 (stereo in doubt)

>  <observed measurement>
> 8 µM

$$$$
>  <compound>
COC[C@H]1[C@@H]2CNC[C@@]21c1ccc(Cl)c(Cl)c1 (relative stereo)

>  <observed measurement>
> 6 µM

$$$$
>  <compound>
Clc1ccc([C@@]23CNC[C@@H]2[C@H]3COCC2CC2)cc1Cl (stereo in doubt)

>  <observed measurement>
3 µM

$$$$
>  <compound>
Clc1ccc([C@@]2(COC3CCC3)[C@@H]3CNC[C@@H]32)cc1Cl

>  <observed measurement>
> 10 µM

$$$$
>  <compound>
Clc1ccc([C@@]2(COCC3CC3)[C@@H]3CNC[C@@H]32)cc1Cl

>  <observed measurement>
> 10 µM

$$$$
>  <compound>
COC[C@@H]1[C@H]2CNC[C@]21c1ccc2ccccc2c1 (stereo in doubt)

>  <observed measurement>
> 4 µM

$$$$
>  <compound>
CCOC[C@H]1[C@@H]2CNC[C@@]21c1ccc(Cl)c(Cl)c1 (relative stereo)

>  <observed measurement>
> 9 µM

$$$$
